Experimental Target: CDK9/Cyclin T1 complex (Homo sapiens, UniProt P50750)
Sequence (P50750 whole entry): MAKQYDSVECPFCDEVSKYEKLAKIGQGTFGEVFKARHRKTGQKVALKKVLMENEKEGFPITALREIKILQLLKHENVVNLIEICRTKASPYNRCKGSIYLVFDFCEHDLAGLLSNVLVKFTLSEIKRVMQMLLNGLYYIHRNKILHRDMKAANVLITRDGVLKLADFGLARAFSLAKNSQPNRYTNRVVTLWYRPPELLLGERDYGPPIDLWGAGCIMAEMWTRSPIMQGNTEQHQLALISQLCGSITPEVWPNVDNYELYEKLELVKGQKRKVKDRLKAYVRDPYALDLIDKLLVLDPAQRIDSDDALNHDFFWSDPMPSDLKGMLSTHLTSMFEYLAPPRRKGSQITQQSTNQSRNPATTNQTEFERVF
Sequence (O60563 whole entry partner): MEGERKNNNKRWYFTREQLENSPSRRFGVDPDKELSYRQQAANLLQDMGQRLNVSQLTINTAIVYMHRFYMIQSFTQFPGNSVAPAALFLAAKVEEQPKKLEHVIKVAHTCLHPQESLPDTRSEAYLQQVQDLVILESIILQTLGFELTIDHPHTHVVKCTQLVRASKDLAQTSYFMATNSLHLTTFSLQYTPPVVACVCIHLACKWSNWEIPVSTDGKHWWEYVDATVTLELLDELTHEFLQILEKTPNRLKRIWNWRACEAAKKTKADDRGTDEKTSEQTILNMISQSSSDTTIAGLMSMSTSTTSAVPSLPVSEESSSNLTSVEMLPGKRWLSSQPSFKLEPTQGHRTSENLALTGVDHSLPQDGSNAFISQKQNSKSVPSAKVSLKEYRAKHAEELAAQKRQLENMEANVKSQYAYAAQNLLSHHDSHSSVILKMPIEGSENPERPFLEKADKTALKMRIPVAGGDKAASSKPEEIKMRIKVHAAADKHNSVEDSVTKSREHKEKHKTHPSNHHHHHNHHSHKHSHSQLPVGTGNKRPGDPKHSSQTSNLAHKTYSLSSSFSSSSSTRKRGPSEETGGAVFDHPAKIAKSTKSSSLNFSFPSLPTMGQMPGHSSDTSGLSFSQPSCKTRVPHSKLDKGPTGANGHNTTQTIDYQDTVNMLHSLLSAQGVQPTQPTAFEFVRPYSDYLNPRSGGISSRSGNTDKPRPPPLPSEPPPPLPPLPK
Method: CDK9 kinase inhibition assay (Caliper/LabChip EZ Reader)
Assay Context: CDK9/Cyclin T1 8 nM, ATP 2 mM, 15 min at 27° C.
Measured IC50, listed per entry for reference.

Some entries whose results are on file:
# Compound, Experimental Target, IC50
rows = [
    ("N#Cc1ccc2c(-c3nc(NC4CCCNC4)ncc3Cl)c[nH]c2c1 (stereo not drawn)", "CDK9/Cyclin T1 complex (Homo sapiens, UniProt P50750)", "0.2 to 5 µM"),
    ("CC(=O)c1ccc2c(-c3nc(N[C@H]4CCCNC4)ncc3C(F)(F)F)c[nH]c2c1", "CDK9/Cyclin T1 complex (Homo sapiens, UniProt P50750)", "0.2 to 5 µM"),
    ("FC(F)(F)c1cnc(NC2CCCNC2)nc1-c1c[nH]c2c(Br)cccc12 (stereo not drawn)", "CDK9/Cyclin T1 complex (Homo sapiens, UniProt P50750)", "0.2 to 5 µM"),
    ("CC1CCNCC1Nc1ncc(C(F)(F)F)c(-c2c[nH]c3ccccc23)n1 (stereo not drawn) [Compound 285]", "CDK9/Cyclin T1 complex (Homo sapiens, UniProt P50750)", "≥ 5 µM"),
    ("COC1CCN(C(=O)c2ccc3c(-c4nc(NC5CCCNC5)ncc4C(F)(F)F)c[nH]c3c2)C1 (stereo not drawn) [Compound 281]", "CDK9/Cyclin T1 complex (Homo sapiens, UniProt P50750)", "0.2 to 5 µM"),
    ("O=C(c1ccc2c(-c3nc(N[C@H]4CCCNC4)ncc3C(F)(F)F)c[nH]c2c1)N1CC[C@@H](O)C1 [Compound 205]", "CDK9/Cyclin T1 complex (Homo sapiens, UniProt P50750)", "≥ 5 µM"),
    ("CCN1CCCC(Nc2ncc(C(F)(F)F)c(-c3c[nH]c4cc(S(C)(=O)=O)ccc34)n2)C1 (stereo not drawn)", "CDK9/Cyclin T1 complex (Homo sapiens, UniProt P50750)", "≥ 5 µM"),
    ("OCc1cncc(-c2ccc3c(-c4nc(NC5CCCNC5)ncc4C(F)(F)F)c[nH]c3c2)c1 (stereo not drawn)", "CDK9/Cyclin T1 complex (Homo sapiens, UniProt P50750)", "0.2 to 5 µM"),
]

As a next step, examine the compound that follows.
Prompt: Lab note: need IC50 with CDK9/Cyclin T1 complex (Homo sapiens, UniProt P50750) for entry CS(=O)(=O)c1cccn2c(C3CNCC(Nc4ncc(C(F)(F)F)c(-c5c[nH]c6ccccc56)n4)C3)nnc12 (stereo not drawn) , please look it up.
Completion: 0.2 to 5 µM
